Numbers sourced from ChEMBL document CHEMBL1955837.

# assay-system: Nitric oxide synthase 1 (Homo sapiens, UniProt P29475)
# procedure-text: Inhibition of human recombinant nNOS expressed in baculovirus infected insect Sf9 cells assessed as conversion of [3H]L-arginine to [3H]L-citrulline incubated for 15 mins prior to substrate addition measured after 45 mins by liquid scintillation counting
quantity: pIC50
Interpret pIC50 as the negative base-10 log of the concentration measured in mol/L.

Request body: readout pIC50, system Nitric oxide synthase 1 (Homo sapiens, UniProt P29475), query NC(=Nc1ccc2c(c1)N(C1CCOCC1)CC2)c1cccs1 . Return the value.
5.49

---

# assay-system: Nitric oxide synthase, inducible (Rattus norvegicus, UniProt Q06518)
# Sequence (Q06518 whole entry): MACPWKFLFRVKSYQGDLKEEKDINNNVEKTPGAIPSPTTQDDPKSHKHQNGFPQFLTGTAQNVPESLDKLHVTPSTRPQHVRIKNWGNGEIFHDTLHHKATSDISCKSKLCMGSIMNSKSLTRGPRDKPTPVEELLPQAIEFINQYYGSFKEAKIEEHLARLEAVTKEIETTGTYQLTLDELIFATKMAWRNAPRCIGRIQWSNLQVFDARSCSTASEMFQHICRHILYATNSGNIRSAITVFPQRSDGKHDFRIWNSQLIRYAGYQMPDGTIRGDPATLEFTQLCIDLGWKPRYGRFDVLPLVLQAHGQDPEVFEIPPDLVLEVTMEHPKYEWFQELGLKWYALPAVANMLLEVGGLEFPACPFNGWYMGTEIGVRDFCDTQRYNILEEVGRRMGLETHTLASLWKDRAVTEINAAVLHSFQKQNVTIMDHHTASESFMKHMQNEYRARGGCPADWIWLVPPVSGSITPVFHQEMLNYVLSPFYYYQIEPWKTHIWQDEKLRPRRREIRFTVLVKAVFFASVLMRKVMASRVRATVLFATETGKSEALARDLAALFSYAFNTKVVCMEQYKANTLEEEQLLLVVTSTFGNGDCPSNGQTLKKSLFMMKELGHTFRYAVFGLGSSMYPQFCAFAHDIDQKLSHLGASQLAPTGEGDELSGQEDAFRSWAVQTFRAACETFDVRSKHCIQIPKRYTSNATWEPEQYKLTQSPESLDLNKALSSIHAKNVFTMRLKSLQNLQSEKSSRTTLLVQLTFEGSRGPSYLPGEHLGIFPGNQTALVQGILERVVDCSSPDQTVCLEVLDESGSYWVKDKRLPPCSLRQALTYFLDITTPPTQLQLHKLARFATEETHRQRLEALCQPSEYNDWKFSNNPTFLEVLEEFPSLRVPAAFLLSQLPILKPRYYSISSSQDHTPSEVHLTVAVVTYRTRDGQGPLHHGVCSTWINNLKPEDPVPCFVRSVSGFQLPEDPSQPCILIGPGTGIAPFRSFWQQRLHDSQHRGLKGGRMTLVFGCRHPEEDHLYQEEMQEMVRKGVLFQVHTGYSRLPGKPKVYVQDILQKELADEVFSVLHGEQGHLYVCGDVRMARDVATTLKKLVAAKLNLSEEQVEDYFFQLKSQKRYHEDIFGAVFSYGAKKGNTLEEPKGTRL
# procedure-text: Inhibition of rat recombinant iNOS expressed in baculovirus infected insect Sf9 cells assessed as conversion of [3H]L-arginine to [3H]L-citrulline incubated for 15 mins prior to substrate addition measured after 45 mins by liquid scintillation counting
quantity: pIC50
A value of pIC50 is the negative decimal logarithm of a concentration given in moles per litre.

# get_value(readout='pIC50', item= CN[C@H]1CC[C@@H](N2CCc3ccc(NC(=N)c4cccs4)cc32)CC1 )
5.63

---

# assay-system: Voltage-gated inwardly rectifying potassium channel KCNH2 (Homo sapiens)
# procedure-text: Inhibition of human Erg expressed in HEK293 cells by patch clamp assay
quantity: IC50 (µM)
Reply with just the number (in µM).

Bench note: what IC50 did CN1CCC[C@H]1CCN1CCCc2cc(NC(=N)c3cccs3)ccc21 show?
4.7

---

# assay-system: UniProt:P29474
# procedure-text: Inhibition of human recombinant eNOS expressed in baculovirus infected insect Sf9 cells assessed as conversion of [3H]L-arginine to [3H]L-citrulline incubated for 15 mins prior to substrate addition measured after 45 mins by liquid scintillation counting
quantity: pIC50
Entry type: numeric. Quantity: pIC50, the -log10 of concentration in molar units.

[[record]]
given_smiles = "NC(=Nc1ccc2c(c1)N(CCNCCO)CC2)c1cccs1"
quantity = "pIC50"
measured_number = 5.47

[[record]]
given_smiles = "N=C(Nc1cc2c(cc1F)CCN2C1CCNCC1)c1cccs1"
quantity = "pIC50"
measured_number = 3.61

[[record]]
given_smiles = "CN[C@H]1CC[C@@H](N2CCc3ccc(NC(=N)c4cccs4)cc32)CC1"
quantity = "pIC50"
measured_number = 3.71

[[record]]
given_smiles = "CN[C@H]1CC[C@H](N2CCc3cc(F)c(NC(=N)c4cccs4)cc32)CC1"
quantity = "pIC50"
measured_number = 3.64

[[record]]
given_smiles = "NC(=Nc1ccc2c(c1)N(C1CCOCC1)CC2)c1cccs1"
quantity = "pIC50"
measured_number = 4.07


Name the recorded pIC50 for NC(=Nc1ccc2c(c1)N(C1CCCCC1)CC2)c1cccs1 .
3.96

What do you get for NC(=Nc1ccc2c(c1)N(C1CCNCC1)CC2)c1cccs1 ?
4.00

---

# assay-system: Nitric oxide synthase 1 (Rattus norvegicus, UniProt P29476)
# Sequence (P29476 whole entry): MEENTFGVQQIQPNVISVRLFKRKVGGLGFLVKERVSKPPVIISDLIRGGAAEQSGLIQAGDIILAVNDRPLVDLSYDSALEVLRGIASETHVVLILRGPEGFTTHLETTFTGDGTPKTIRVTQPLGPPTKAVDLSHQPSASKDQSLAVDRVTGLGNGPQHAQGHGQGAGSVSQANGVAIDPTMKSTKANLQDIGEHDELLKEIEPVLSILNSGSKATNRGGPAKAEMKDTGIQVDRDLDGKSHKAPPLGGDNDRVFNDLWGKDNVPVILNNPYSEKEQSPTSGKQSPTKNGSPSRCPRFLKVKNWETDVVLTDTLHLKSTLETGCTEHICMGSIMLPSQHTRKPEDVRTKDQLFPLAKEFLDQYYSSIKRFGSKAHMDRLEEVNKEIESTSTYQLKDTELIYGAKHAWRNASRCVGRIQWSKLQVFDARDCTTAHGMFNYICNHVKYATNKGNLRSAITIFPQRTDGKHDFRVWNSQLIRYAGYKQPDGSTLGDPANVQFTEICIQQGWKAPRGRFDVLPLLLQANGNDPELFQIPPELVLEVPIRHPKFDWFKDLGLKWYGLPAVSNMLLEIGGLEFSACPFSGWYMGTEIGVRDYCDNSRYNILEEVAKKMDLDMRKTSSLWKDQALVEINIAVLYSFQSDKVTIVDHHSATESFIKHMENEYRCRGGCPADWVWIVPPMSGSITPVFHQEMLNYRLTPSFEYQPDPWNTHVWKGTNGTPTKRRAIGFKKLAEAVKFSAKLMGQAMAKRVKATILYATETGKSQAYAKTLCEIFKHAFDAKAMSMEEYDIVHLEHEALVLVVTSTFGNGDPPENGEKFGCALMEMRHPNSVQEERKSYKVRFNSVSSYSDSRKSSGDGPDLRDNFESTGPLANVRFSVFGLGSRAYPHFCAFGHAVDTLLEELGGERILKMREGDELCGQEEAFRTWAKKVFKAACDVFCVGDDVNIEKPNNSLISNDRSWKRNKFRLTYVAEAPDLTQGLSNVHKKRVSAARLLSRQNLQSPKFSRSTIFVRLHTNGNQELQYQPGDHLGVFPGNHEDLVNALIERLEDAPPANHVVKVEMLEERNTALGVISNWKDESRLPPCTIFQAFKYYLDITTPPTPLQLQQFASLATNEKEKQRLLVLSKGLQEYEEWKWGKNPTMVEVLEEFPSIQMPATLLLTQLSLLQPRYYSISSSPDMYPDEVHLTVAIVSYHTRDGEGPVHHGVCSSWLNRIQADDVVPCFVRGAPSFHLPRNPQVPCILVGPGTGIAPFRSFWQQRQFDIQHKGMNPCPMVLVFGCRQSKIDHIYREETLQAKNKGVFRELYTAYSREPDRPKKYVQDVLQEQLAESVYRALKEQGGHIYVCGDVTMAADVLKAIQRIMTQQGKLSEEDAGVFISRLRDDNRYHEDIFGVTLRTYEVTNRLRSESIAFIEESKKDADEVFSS
# procedure-text: Inhibition of rat recombinant nNOS expressed in baculovirus infected insect Sf9 cells assessed as conversion of [3H]L-arginine to [3H]L-citrulline incubated for 15 mins prior to substrate addition measured after 45 mins by liquid scintillation counting
quantity: IC50 (nM)
Please give a number only; it is taken to be in nM.

# input compound: CN[C@H]1CC[C@@H](N2CCc3ccc(NC(=N)c4cccs4)cc32)CC1 ; wanted: its IC50
1930

---

# Species on record: Homo sapiens
# procedure-text: Selectivity ratio of IC50 for human recombinant eNOS to IC50 for human recombinant nNOS
Known Ratio IC50 of a selection of compounds
# respond with the number and nothing more

Some solved cases for reference:
[[record]]
compound = "N=C(Nc1ccc2c(c1)N(CCNCCO)CC2)c1cccs1"
measured_number = 48

[[record]]
compound = "N=C(Nc1cc2c(cc1F)CCN2C1CCNCC1)c1cccs1"
measured_number = 13

[[record]]
compound = "N=C(Nc1ccc2c(c1)N(C1CCNC1)CC2)c1cccs1 (racemic)"
measured_number = 40

[[record]]
compound = "N=C(Nc1ccc2c(c1)N(C1CCNCC1)CC2)c1cccs1"
measured_number = 183

[[record]]
compound = "CN[C@H]1CC[C@H](N2CCc3cc(F)c(NC(=N)c4cccs4)cc32)CC1"
measured_number = 41


Ratio IC50 lookup needed for CN[C@H]1CC[C@@H](N2CCc3cc(F)c(NC(=N)c4cccs4)cc32)CC1 , thanks.
38

---

# assay-system: Nitric oxide synthase 3 (Rattus norvegicus)
# Sequence (Q62600 whole entry): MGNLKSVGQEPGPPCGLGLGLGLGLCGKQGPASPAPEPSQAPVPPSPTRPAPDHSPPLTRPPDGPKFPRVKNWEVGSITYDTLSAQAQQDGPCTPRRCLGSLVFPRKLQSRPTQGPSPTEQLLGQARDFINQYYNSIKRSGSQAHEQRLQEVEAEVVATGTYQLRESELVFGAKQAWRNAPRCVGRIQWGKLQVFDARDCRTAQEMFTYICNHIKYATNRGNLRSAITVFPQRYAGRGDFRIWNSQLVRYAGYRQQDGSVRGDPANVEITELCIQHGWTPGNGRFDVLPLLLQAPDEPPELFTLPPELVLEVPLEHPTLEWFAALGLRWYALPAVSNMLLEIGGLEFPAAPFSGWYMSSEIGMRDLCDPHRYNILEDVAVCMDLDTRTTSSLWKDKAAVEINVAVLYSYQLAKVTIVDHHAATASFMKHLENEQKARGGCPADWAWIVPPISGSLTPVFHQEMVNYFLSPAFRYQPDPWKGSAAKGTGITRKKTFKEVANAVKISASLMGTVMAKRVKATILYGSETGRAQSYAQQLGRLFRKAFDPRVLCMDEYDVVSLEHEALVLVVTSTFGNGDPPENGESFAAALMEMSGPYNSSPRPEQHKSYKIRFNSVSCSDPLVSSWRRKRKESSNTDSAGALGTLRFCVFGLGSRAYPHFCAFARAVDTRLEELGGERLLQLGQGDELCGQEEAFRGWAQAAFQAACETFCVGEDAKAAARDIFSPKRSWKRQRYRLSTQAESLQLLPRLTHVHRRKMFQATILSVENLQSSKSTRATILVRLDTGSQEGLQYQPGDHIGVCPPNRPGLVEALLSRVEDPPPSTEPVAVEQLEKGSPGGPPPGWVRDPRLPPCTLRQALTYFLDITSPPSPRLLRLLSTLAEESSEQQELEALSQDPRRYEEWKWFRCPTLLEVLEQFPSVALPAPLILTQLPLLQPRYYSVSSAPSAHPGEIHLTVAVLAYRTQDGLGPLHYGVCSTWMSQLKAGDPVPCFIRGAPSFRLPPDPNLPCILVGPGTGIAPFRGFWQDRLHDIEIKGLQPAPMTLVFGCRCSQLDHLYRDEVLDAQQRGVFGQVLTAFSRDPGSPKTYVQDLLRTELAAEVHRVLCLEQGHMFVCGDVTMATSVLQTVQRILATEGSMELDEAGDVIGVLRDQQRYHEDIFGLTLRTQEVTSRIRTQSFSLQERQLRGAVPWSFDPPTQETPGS
# procedure-text: Inhibition of rat recombinant eNOS expressed in baculovirus infected insect Sf9 cells assessed as conversion of [3H]L-arginine to [3H]L-citrulline incubated for 15 mins prior to substrate addition measured after 45 mins by liquid scintillation counting
quantity: IC50 (µM)
Output spec: scalar in µM, unitless text.

// query IC50 value for entry CN[C@H]1CC[C@@H](N2CCc3ccc(NC(=N)c4cccs4)cc32)CC1
4.16

---

# assay-system: Sodium-dependent noradrenaline transporter (Homo sapiens)
# procedure-text: Displacement of [3H]nisoxetine from human recombinant norepinephrine transporter expressed in CHO cells after 120 mins
# Type: cell-based
quantity: pIC50
Hey, just a heads up that pIC50 is the negative log base 10 of the concentration in molar.

Quick one: pIC50 for CN[C@H]1CC[C@@H](N2CCc3ccc(NC(=N)c4cccs4)cc32)CC1 ?
5.36

---

# assay-system: Nitric oxide synthase 3 (Homo sapiens, UniProt P29474)
# Sequence (P29474 whole entry): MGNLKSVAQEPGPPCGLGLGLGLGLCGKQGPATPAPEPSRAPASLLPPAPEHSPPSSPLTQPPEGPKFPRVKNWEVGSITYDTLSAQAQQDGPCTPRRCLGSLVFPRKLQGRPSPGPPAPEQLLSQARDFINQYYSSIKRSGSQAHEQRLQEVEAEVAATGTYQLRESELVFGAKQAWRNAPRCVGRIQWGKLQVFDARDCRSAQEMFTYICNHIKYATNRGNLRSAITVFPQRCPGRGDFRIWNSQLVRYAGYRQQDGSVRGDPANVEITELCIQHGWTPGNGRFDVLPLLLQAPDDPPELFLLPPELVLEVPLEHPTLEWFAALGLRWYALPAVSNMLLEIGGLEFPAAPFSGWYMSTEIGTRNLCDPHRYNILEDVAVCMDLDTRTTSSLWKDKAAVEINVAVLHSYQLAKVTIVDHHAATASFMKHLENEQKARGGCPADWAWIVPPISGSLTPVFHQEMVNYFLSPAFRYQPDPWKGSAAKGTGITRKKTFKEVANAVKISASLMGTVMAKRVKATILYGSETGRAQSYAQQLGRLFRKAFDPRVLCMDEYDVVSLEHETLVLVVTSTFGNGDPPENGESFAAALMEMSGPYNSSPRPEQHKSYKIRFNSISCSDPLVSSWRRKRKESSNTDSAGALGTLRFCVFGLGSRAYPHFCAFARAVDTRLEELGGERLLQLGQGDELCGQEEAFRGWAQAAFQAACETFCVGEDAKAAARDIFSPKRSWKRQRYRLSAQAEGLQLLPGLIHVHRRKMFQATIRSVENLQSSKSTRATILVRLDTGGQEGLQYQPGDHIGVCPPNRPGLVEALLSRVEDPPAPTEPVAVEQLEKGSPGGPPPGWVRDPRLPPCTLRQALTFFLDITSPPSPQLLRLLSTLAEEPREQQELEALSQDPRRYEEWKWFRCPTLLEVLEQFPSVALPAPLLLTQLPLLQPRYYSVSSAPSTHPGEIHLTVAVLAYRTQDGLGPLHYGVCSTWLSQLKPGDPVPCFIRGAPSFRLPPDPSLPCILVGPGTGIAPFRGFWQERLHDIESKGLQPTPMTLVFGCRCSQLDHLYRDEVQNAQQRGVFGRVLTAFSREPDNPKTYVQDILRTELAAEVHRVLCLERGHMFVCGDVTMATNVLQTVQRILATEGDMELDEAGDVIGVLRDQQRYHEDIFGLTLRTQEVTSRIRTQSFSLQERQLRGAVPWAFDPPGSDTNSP
# procedure-text: Inhibition of human recombinant eNOS expressed in baculovirus infected insect Sf9 cells assessed as conversion of [3H]L-arginine to [3H]L-citrulline incubated for 15 mins prior to substrate addition measured after 45 mins by liquid scintillation counting
pIC50: −log10 of the molar value.
The label depends only on pIC50: Criterion met if it is at least 5, Criterion not met if it is smaller.

[[record]]
given_smiles = "NC(=Nc1ccc2c(c1)N(CCN1CC[C@@H](O)C1)CC2)c1cccs1"
assigned_label = "Criterion met"

[[record]]
given_smiles = "CN[C@H]1CC[C@@H](N2CCc3cc(F)c(NC(=N)c4cccs4)cc32)CC1"
assigned_label = "Criterion not met"

[[record]]
given_smiles = "CN[C@H]1CC[C@H](N2CCc3ccc(NC(=N)c4cccs4)cc32)CC1"
assigned_label = "Criterion not met"


Shift focus to the following entry.
Decide: is the reported value of pIC50 for NC(=Nc1ccc2c(c1)N(C1CCSCC1)CC2)c1cccs1 equal to or greater than 5?
Criterion not met

---

Parameter pIC50: see the listing below.
# assay-system: Nitric oxide synthase, inducible (Homo sapiens, UniProt P35228)
# Sequence (P35228 whole entry): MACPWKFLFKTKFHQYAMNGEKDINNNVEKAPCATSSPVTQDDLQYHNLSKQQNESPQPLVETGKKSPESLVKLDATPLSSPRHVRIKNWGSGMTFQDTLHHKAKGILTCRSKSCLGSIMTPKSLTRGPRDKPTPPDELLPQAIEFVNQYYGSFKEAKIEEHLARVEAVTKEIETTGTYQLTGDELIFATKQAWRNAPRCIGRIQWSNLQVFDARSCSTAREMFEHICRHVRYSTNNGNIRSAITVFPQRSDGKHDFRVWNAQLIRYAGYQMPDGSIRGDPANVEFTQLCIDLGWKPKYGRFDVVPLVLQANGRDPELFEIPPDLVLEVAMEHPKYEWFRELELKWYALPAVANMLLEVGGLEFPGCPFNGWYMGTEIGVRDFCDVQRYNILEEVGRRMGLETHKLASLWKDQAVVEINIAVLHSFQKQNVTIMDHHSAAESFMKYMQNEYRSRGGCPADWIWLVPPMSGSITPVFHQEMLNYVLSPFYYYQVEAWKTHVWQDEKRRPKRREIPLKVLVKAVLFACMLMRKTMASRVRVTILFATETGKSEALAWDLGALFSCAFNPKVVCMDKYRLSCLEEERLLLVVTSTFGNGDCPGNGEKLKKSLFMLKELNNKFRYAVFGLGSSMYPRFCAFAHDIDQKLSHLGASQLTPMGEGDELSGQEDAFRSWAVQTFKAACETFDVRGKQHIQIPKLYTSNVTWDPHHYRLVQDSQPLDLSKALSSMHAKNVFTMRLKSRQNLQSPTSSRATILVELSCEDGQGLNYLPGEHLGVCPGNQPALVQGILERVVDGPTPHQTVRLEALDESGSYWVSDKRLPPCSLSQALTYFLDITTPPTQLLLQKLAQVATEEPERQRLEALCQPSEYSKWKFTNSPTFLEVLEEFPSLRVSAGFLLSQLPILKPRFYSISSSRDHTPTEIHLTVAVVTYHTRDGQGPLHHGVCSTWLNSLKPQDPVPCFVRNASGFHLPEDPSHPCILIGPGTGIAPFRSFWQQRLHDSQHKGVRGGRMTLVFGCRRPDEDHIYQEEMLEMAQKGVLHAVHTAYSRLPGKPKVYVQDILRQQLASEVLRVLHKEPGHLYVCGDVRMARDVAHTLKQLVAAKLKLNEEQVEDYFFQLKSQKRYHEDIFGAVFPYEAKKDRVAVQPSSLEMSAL
# procedure-text: Inhibition of human recombinant iNOS expressed in baculovirus infected insect Sf9 cells assessed as conversion of [3H]L-arginine to [3H]L-citrulline incubated for 15 mins prior to substrate addition measured after 45 mins by liquid scintillation counting
Scale: pIC50 equals -log10([C]), with [C] in mol/L.

Guide cases for pIC50, answers given:
[[record]]
compound = "N=C(Nc1ccc2c(c1)N(C1CCNC1)CC2)c1cccs1 (racemic)"
measured_number = 5.05

[[record]]
compound = "NC(=Nc1ccc2c(c1)N(CCNCCO)CC2)c1cccs1"
measured_number = 5.47


Form field: reported pIC50 of N=C(Nc1cc2c(cc1F)CCN2C1CCNCC1)c1cccs1
3.32

Another compound to look at: NC(=Nc1ccc2c(c1)N(CCN1CC[C@@H](O)C1)CC2)c1cccs1
5.17

Could you do the same for CN[C@H]1CC[C@H](N2CCc3cc(F)c(NC(=N)c4cccs4)cc32)CC1 , please?
3.28
